Origin of values: the nanobody polyreactivity screen of Harvey et al. (2022)

experiment: yeast display, Sf9 membrane polyspecificity reagent, FACS + sequencing; frameworks hold sequencing errors
assay.metric: polyreactivity (PSR sort gate)

>>> endpoint_result("QVQLVESGGGLVQAGGSLRLSCAASGRIFKYYAMGWSRQAPGKERELVPAINRDGGRTYYADSVKGRFTISRDNAKNTVYLQMNSLTPEETAVYYCAASYGYVYTTSLDYWGQGTQVTVSS")
"low polyreactivity"
>>> endpoint_result("QVQLEESGGGLVQAGGSLRLSCAASGSISVRYTMGSYRQAPGKERELVAGISRSGGTTYADSVKGRFTISRDNGKNTVYLQMNSLKQEDTAVYYCAAELRRGSGRSYKGYYYWGQGTQVSVSS")
"low polyreactivity"
>>> endpoint_result("QVQLVESGGGLVQAGGSLRLSCAASGFTFGGNAMGWYRQAPGKEREFVAAITRSGGSTYYADSVKGRFTISRDNAKNTVYLQMHSLKPEDTAVYYCAARRSYPLGYDYWGQGTQVTVSS")
"high polyreactivity"
>>> endpoint_result("QLQLEESAGGLVQAGGSLRLSCAASGSIFSDNAMGWYRQAPGKERELVASINSGGSTNYADSVKGRFTISRDNAKNTVYLQMNSLKPEYTAVYYFNKEDEVVYPGYPNGGMDYWGQGTQVTVSS")
"low polyreactivity"
>>> endpoint_result("QVQLVESGGGLVQAGGSLRLSCAASGSTFRWNAMGWYRQAPGKERELVAAISWSGGTTYYADSVKGRFTISRDNAKNTVYLQMNSLKPEDTAVYYCAARTLWQGYWGQGTQVTVSS")
"high polyreactivity"
>>> endpoint_result("QVQLVETPGGLVQAGGSLRLSCAASGRIFAYNAMGWYRQEPGNERELVAAIDSGGDTNYADSVKGRFTISRDNAKNTVYLKMNSLKPEVTAVYYCWSRAAPPGWFYGTNDNYWGQGTQVTVSS")
"low polyreactivity"
>>> endpoint_result("QVQLVESGGRIVQAGGSLRLSCAASGRTFPINAMGWYRQAPGKERELVASIRWTDGTTYYADSVKGRFTISRDNAKNTVYLQMNSLKPEDTAVYYCAADAEGSASKYDYWGQGTQVTVSS")
"low polyreactivity"
>>> endpoint_result("QVQLVESGGGIVQAGGSLRLSCAASVFTFLHNTMGWYRQAPGKERELVAAISIGGRTYYADSVKGRFTISRDIAKKTVYLQMNSLKPEDTAVYYCAKLSGGQSPGYDYWGQGTQVTVSS")
"high polyreactivity"
>>> endpoint_result("QVQLVESGGGLVQAGGSLRLSCAASGITFYDNAMGWYRPAPGKERELVAGISYDGDSTYADSVKGRFTISRDNAKNTVYLQMNSLKPEDTAVYYCAALGPYDWLWAGDYWGQGTQVTVSS")
"low polyreactivity"
>>> endpoint_result("QVQLVESGGGLVQAGGSLRLSSAASGRTFRYYAMRWYRQAPAKERELVAAINRGGSTYYGDSVKGRFTISRDNAKNTVYLQMNSLKPVDTAVYYCNVDKYRIVGFHTPYDYWGQGTQVTVSS")
"high polyreactivity"
>>> endpoint_result("QVQLVESGGGLVQAGGSLRLSCAASGSTFGDYAMGWSRQAPGKERELVAAISRGGSTYYADSVKGRFTISRDNEKNTVYLQMNSLKPEDTAVYYCNKDEGYSASPDGSTFDYWGQGTQVTVSS")
"low polyreactivity"
>>> endpoint_result("QVQLVESGGGLVQAGGSLRLSCAASGSIFWSYAMGWYRQAPGKERELVAAITYSGTSTYYADSVKGRFTISRDNAKNTVYLQMNSLKPEDTAVYYCNADAYVYFDDGDYWGQGTQVTVSS")
"low polyreactivity"
>>> endpoint_result("QVQLVESGGGLVQAGGSLRLSCAASGSIFGDYAMGWYRQAPGTDRELVATITWIGGSTYYADSVKGRFTISRDNAKNTVYCQMNSLKPEDTAVYYCAATKYVDVKYYYWGQGTQVTVSS")
"low polyreactivity"
>>> endpoint_result("QVQLVESGGALVQAGGSLRFSCASSGRIFSSNTMGWYRQAPGKERELVAAISRGSITYYAHSVKGRFTISRDNAKNTVYLQMNSLKPEDTAVYYCAAGVGLDNYGYGYWGQGTQVTVSS")
"low polyreactivity"
>>> endpoint_result("QVQLVESGGGLVQAGGSLRLSCAASGFTFRDYVMGWYRQAPGKERELVAAISRSGASTYYADSVKGRFTISRDNAKNTVYLQMNSLKPEDTAVYYCAKTQAGYSPGTYYYWGQGTQVTVSS")
"high polyreactivity"
>>> endpoint_result("QVQLVESGGGLVQAGGSLRLICAASGGISLYYVKGWYRQAPGKERELVADISGDDSTNYADSVKGRFTISRDNAKNTVYLQMNSLKPEDTAVYYSAAVPGLFYLPYDYWGQGTQVTVSS")
"low polyreactivity"
>>> endpoint_result("QVQRVESGGGLVQAGGSLPLSCAATGRTVRQNAMGWYGQAPGKVSELVAAISSSGTNTHYAVSVKGRFTISRDNANNTVYIVMNRLKPEDTAVYYCAADGWGARRKQYHDNGFWGTGTQVTVSS")
"high polyreactivity"
>>> endpoint_result("QEQLVESGGGLDQAGGSLRLSCAASGSTFSGYALAWYRQAPGKERELVAAISWRGVRTYYADSVKGRFSISRDNAKNRVYLQMNSLKPEDNAVYYCAAVGYITKEFYWGQGTKVTVSS")
"high polyreactivity"
>>> endpoint_result("QVQLVESGGGLVQAGGSLRLSCAASGRTFSRYTMGWYRQAPGKEREFVAAIDRGGGTTYYADSVKGRFTISRDNAKNTVYLQMNSLKPEDTAVYYCAAERNYWSTQYYYWGQGTQVTVSS")
"high polyreactivity"
>>> endpoint_result("QVQLVESGGGLVQAGGSLRLSCAASGSTFRYYAMGWYRQAPGKERELVATITGSGGSTYYADSVKGRFTISRDNAKNTVYLQMNSLKPEDTAVYYCAAYYSGGYDYWGQGTQVTVSS")
"high polyreactivity"
>>> endpoint_result("QVQLVESGGGLVQAGGSLRVSCAASGRIFGYNAMGWSRQAPVKERELDAAIRGGGSTYYADSVKGRFTISRDNAKHSVYLQMYSLKPEDTAVYYCAATSYTYVLSPYRGDYWGQGTQVTVSS")
"high polyreactivity"

###

experiment: yeast display, Sf9 membrane polyspecificity reagent, FACS + sequencing; frameworks hold sequencing errors
assay.metric: polyreactivity (PSR sort gate)

>>> endpoint_result("QVQLVASGGGLLQAGGSLRLSCAASGIIFDRYTMGWYRQAPGKERELVASISDDDGSTYYADSVKGRFTISRDNAKNTVYLQMNSLTPEDTAVYYCKALSIIFDYWGQATQVTVSS")
"low polyreactivity"
>>> endpoint_result("QVQLVESGAGLVQAGGSLRLSCAASGRIVYYVMGWYRQAPAKEMELVAAISTRGGSTYYADSVKGRFTISRDNAKNTVYLQINSLKPEDTAVYYCAASSLLTRFNSWGQGTQVTVSS")
"high polyreactivity"
>>> endpoint_result("QVQLVESGGGLVQAGGSLRLSCAASGFTIGRYAMGWYRQAPGKERELVAAISKNGGRTYYADSVKGRFTISRDNAKNTVYLQMNSLKPEDTAVYYCNTDWYYTGRVHGFDYWGQGTQVTVSS")
"high polyreactivity"
>>> endpoint_result("QVQLVESGGGLVQAGGSLRLSCAASGFTFSYYAMGWYRQAPGKERELVAAISGSGGSTYYADSVKGRFTISRDNAKNTVYLQMNSLKPEDTAVYYCNARWRTRGHPEMYHWGQGTQVTVSS")
"high polyreactivity"
>>> endpoint_result("QVQLVESGGGLVQAGGSLRLSCAASGLIFYTYAMGWYRQAPGKEREFVAAISRRGGSTYYADSVKGRFTISRDNAKNTVYLQMNSLKPEDTAVYYCNARYTYPRPYEEYYYWGQGTQVTVSS")
"high polyreactivity"
>>> endpoint_result("QVQLVESGGGLVQAGGSLRLSCAASGFIFERYTMGWYRHAPGKERELVAAISDSGGSTYYADSVKGRFTISRDNAKNTVYLQMNSLKPEDTAVYYCAAKFRNYRPSKYYYWGQGTQVTVSS")
"high polyreactivity"
>>> endpoint_result("QVQLVESGGGLVQAGGSLRLSCAASGRIFILYAMGWYRQAPGKERELVAAITGGSTYYADSVKGRFTISRDNAKNTVYLQMNSLKPEDSAVYYCAADVRHYIWEYYYWGQGTQVTVSS")
"low polyreactivity"
>>> endpoint_result("QVQLVESGGGLVQAGGSLRLSCAASGRTFKYNAMGWYRQAPGKERELVAAITSSGGRTYYADSVKGRFTISRDNAKNTVYLQMNSLKPEDTAVYYCAARGYPSDYKYEYNYWGQGTQVTVSS")
"high polyreactivity"
>>> endpoint_result("QVQLVESGGGLVQAGGSLRLSCAASGIIFRDNAMGWYRQAPGKERELVAAIDSSGGTTYADSVKGRFTISRDNAKNTVYLQTHSLTPEDTAVYYCATEVYWTVSYYGYDYYGGNYYYWGQGTQVTVSS")
"low polyreactivity"
>>> endpoint_result("QVQHVESGGGLVQAGGSLRLSCAASGGTFYTYAMGWYRQAPGKERELVAAITSRGSSTYYADSVKGRFTISRDNANNTVYLQMNSLKPEDTAVYYCARRSQRGMYSMYYWGQGTQVTVSS")
"low polyreactivity"
>>> endpoint_result("QVQLVESGGGLVQAGGSLRLSCPASGSIYASNTMGWYRQAPGKERELVSGITKIGSSTYYADSVKRRFTISRDNAKNTVYLQMNSLKPEDTAVYYCNAYGPTIYSSRYDYWGQGTQVTVSS")
"low polyreactivity"
>>> endpoint_result("QVQIVESRGGLVQAGGSLRLSCAASGSTIPYYAMGRYRQAPGKERELVARIRWNGDSTYYADSVKGRFTISRDIAKNTVYLQINSLKPEDTAVYYCARQGYTLYRTRNRYDYWGKGTQVTVSS")
"high polyreactivity"
>>> endpoint_result("QVQLVESGGGLVQAGGSLRLSCAASGRTFPRYAMGWYRQAPGKERELVAAISVRAGITYYADSVKGRFTISRDNAKNTVYLQMKSLKPEDTADYYCAKDHWTSSYDEGDYWGQGTQVTVSS")
"low polyreactivity"
>>> endpoint_result("QVQLVESGGGLVQAGGSLRLSCAASGSIFVRNTMGWYRQAPGKERELVASIDWSGGITYYADSVKGRFTISRDNAKNTVYLQMNSLKPEDTAVYYCNAVFLYPFNVPTMEYWGQGTQVTVSS")
"low polyreactivity"
>>> endpoint_result("QVQLVESGGGLVQAGGSLRLSCAASGRIFDWNTMGWYRQAPGKERELVAAISYDGSTYYADSVKGRFTISRDNAKNTVYLQMNSLKPEDTAVYYCNAYPLTQYFAQGYDYWGQGTQVTVSS")
"low polyreactivity"
>>> endpoint_result("QVQLVESGGGLDQAGGSLRLTCAASGRTFSRNAMGWYRQAPGKERELVAAISGSGGTTYYADSVKGRFTISRDNAKNTVYLQMKSLKPEDTAVYYCAADLRYAWVFWYEYWGLGTQVTVSS")
"low polyreactivity"
>>> endpoint_result("QVQLVESGGGLVQAGGSLRLSCAASGRIFRPYAMGWYRQAPGKERELVAGITSSGGSTYYADSVEGRFTISRDNAKNTVYLQMNSLKPEDTAVYYCAAVHGLFRPLHYYWGQGTQVTVSS")
"low polyreactivity"
>>> endpoint_result("QVQLVESGGGLVQAGGSLRLSCAASGLTFTINAMGWYRQAPGKERELVAAITGNNTSTYYADSVKGRFTISRDNAKNTVYLQMNSLKPEDTAVYYCAASVYHYGPLYYWGQGTQVTVSS")
"low polyreactivity"
>>> endpoint_result("QVQLVESGGGLVQAGGSLRLSCAASGFSYRYYAMGWYRQAPGKERELVAAISSRGGSTYYADSVKGRFTISRDNATNTVYLQMNSLKPEDTAVYYCAADHGDPGGYDYWGQGTQVTVSS")
"high polyreactivity"
>>> endpoint_result("QVQLVESGGGLVQAGGSLRLSCAASGRIFGRYAMGWYRQAPGKERELVASITRRGGSTYYADSVKGRFTISRDNAKNTVYLQMNSLKPEDTAVYYCAAGGFSWEGDSWGQGTQVTVSS")
"high polyreactivity"
>>> endpoint_result("QVQLVESGGGLVQAGGSLRLSCAASGRIFTGNVMRWYRQAPGKERELVAAISYGGGSTNYSDSVKGRFTISRDNAKNTVYLQMNSLKQEDTAVYYCAACIKRYLSYYTRYGYWGQGTQVTVSS")
"high polyreactivity"
